We begin with a simple list: items and their reported pIC50.
Target: UniProtKB Q9NRG4
Assay: SMYD2 biochemical assay (SMYD2 enzyme assay on peptide substrate, 3H-SAM Flashplate)
Conditions: read-out: SMYD2 Biochem IC50; IC50 values are an average of n = 1 to n = 50
pIC50: −log10 of the molar value.
Observable: pIC50

[[record]]
molecule = "CC(C)N1CC(NC(=O)c2cn(CCN)nn2)C1"
observable = "pIC50"
result = "< 4.30"

[[record]]
molecule = "COc1ccc(C(N2CC(NC(=O)c3cn(C4CC4)nn3)C2)C(F)(F)F)cc1 (stereo not shown)"
observable = "pIC50"
result = 6.25

[[record]]
molecule = "CC(c1ccc2[nH]nc(-c3ccccc3Cl)c2c1)N1CC(NC(=O)c2cn(C3CC3)nn2)C1 (stereo not shown)"
observable = "pIC50"
result = "< 4.30"

[[record]]
molecule = "CC(NC(=O)c1cc(C2CC2)cnn1)C1CCCCN1C (stereo not shown)"
observable = "pIC50"
result = "< 4.30"


====

Molecular target: SMYD3 (Homo sapiens (Human), UniProt Q9H7B4)
Sequence (Q9H7B4 whole entry): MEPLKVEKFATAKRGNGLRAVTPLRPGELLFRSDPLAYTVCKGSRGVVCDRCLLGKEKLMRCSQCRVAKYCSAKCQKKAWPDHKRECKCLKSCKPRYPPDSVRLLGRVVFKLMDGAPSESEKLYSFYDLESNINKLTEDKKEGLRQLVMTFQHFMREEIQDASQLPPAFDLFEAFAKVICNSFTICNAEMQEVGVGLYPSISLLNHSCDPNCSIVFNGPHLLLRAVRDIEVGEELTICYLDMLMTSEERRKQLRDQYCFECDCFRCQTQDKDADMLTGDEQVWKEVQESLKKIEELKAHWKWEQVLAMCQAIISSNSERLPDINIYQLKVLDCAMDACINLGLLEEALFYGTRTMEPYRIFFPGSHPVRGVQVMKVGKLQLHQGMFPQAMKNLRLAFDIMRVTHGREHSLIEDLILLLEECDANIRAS
Assay: SMYD3 cell assay (Trimethyl-MEKK2 In-Cell Western in 293T/17 cells transfected with MEKK2-flag and SMYD3)
Type: cell-based
Conditions: Table 3A; average of n = 1 to n = 50; read-out: SMYD3 cell IC50
We begin with a simple list: items and their reported IC50.
Observable: IC50 (nM)

[[record]]
query_smiles = "C[C@H]1C[C@@H](NC(=O)c2cc3c(cc2Cl)NC(=O)C3)CCN1S(=O)(=O)N1CCC(N)CC1"
numeric_value = 814

[[record]]
query_smiles = "NC1CCN(S(=O)(=O)N2[C@@H]3CC[C@H]2C[C@@H](NC(=O)c2ccc4c(c2)CC(=O)N4)C3)CC1"
numeric_value = 854

[[record]]
query_smiles = "O=C1Cc2cc(C(=O)N[C@H]3C[C@H]4CC[C@@H](C3)N4S(=O)(=O)CCN3CCCC3)ccc2N1"
numeric_value = 761


====

We begin with a simple list: items and their reported IC50.
Biological target: UniProt Q9H7B4
Assay: SMYD3 biochemical assay (SMYD3 enzyme assay on MEKK2 protein substrate, 3H-SAM scintillation proximity assay)
Conditions: read-out: SMYD3 Biochem IC50
Observable: IC50

[[record]]
molecule = "CC(NC(=O)C1=NNC(=O)CC1)C1CCN(C(=O)[C@H](C)N)CC1 (stereo partly shown) [compound 311]"
observable = "IC50"
result = "> 100 µM"

[[record]]
molecule = "N[C@H]1CC[C@H](NC(=O)[C@H]2C[C@H](O)CN2)CC1 [compound 435]"
observable = "IC50"
result = "> 100 µM"

[[record]]
molecule = "N[C@H]1CC[C@H](NC(=O)c2nc3ccc(F)cc3s2)CC1 [compound 500]"
observable = "IC50"
result = "> 100 µM"

[[record]]
molecule = "C[C@@H](N)CC(=O)N[C@H]1CC[C@H](NC(=O)c2ccc3c(c2)CC(=O)N3)CC1 [compound 453]"
observable = "IC50"
result = "0.26 µM"


====

Target: SMYD2 (Homo sapiens (Human))
Sequence (Q9NRG4 whole entry): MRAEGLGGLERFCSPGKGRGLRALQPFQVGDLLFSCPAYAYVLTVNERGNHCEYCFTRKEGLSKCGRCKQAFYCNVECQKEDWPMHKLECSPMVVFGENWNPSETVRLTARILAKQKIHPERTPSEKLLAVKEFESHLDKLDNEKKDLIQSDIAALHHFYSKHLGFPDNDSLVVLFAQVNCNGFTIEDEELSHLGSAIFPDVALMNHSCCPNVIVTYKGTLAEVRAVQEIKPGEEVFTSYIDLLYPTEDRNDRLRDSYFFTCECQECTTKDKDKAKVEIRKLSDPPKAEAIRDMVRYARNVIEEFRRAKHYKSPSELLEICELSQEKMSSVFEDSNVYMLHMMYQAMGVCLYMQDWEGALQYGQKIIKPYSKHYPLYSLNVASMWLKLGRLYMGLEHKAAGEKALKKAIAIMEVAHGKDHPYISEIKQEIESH
Test: SMYD2 biochemical assay (SMYD2 enzyme assay on peptide substrate, 3H-SAM Flashplate)
Settings: read-out: SMYD2 Biochem IC50; IC50 values are an average of n = 1 to n = 50
pIC50: −log10 of the molar value.
Criterion: pIC50 meeting or surpassing 6. Met: TRUE. Not met: FALSE.

[[record]]
compound = "CN(C)CCCNC(=O)c1cc(C2CC2)cnn1"
group = "FALSE"

[[record]]
compound = "COc1cccc2c1C(N1CC(NC(=O)c3cn(C4CC4)nn3)C1)CC2 (stereo not shown)"
group = "FALSE"

[[record]]
compound = "C[C@@H](c1cccc(OCCO)c1Cl)N1CC(NC(=O)c2cn(C3CC3)nn2)C1 (single isomer, unassigned)"
group = "TRUE"

[[record]]
compound = "C[C@H](c1ccccc1)N1CC(NC(=O)c2cc(C3CC3)cnn2)C1"
group = "FALSE"

[[record]]
compound = "COc1cccc(C(C)N2CC(NC(=O)c3cc(C4CC4)cnn3)C2)c1OC (stereo not shown)"
group = "TRUE"

[[record]]
compound = "CS(=O)(=O)CC(c1ccccc1)N1CC(NC(=O)c2cn(C3CC3)nn2)C1 (stereo not shown)"
group = "FALSE"

[[record]]
compound = "CC(c1ccc(OCc2ccccc2)cc1)N1CC(NC(=O)c2cn(C3CC3)nn2)C1 (stereo not shown) [compound 693]"
group = "TRUE"

[[record]]
compound = "CN1[C@@H]2CC[C@H]1C[C@@H](NC(=O)c1cc(C3CC3)cnn1)C2"
group = "FALSE"

[[record]]
compound = "CC(C)N1CC(NC(=O)c2cn(CCO)nn2)C1"
group = "FALSE"

[[record]]
compound = "CN1CCCC(NC(=O)c2cc(C3CC3)cnn2)C1 (stereo not shown)"
group = "FALSE"

[[record]]
compound = "CNC(=O)c1cccc(CN2CC(NC(=O)c3cn(C4CC4)nn3)C2)c1"
group = "FALSE"

[[record]]
compound = "COc1cc(C(C)N2CC(NC(=O)c3cn(C4CC4)nn3)C2)ccc1F (stereo not shown)"
group = "FALSE"

[[record]]
compound = "CC(NC(=O)c1cn(C2CC2)nn1)C1CCCCN1 (stereo not shown)"
group = "FALSE"

[[record]]
compound = "CC(c1cc(Cl)ccc1Oc1ccc(F)cc1)N1CC(NC(=O)c2cn(C3CC3)nn2)C1 (stereo not shown)"
group = "FALSE"

[[record]]
compound = "CC(c1cc(F)ccc1F)N1CC(NC(=O)c2cn(C3CC3)nn2)C1 (stereo not shown)"
group = "FALSE"

[[record]]
compound = "COc1ccc(C(C)N2CC(NC(=O)c3cc(C4CC4)cnn3)C2)cc1 (stereo not shown) [compound 958]"
group = "TRUE"


====

We begin with a simple list: items and their reported IC50.
Molecular target: SMYD2 (Homo sapiens (Human))
Assay: SMYD2 biochemical assay (SMYD2 enzyme assay on peptide substrate, 3H-SAM Flashplate)
Conditions: read-out: SMYD2 Biochem IC50; IC50 values are an average of n = 1 to n = 50
Observable: IC50 (nM)

[[record]]
molecule = "CCN1CC(NC(=O)c2cc(C3CC3)cnn2)C1"
observable = "IC50"
bound_operator = "="
numeric_value = 598

[[record]]
molecule = "CCCN1CC(NC(=O)c2cn(C3CC3)nn2)C1"
observable = "IC50"
bound_operator = "="
numeric_value = 1170

[[record]]
molecule = "O=C(NC1CN(Cc2ccc(OCc3cscn3)cc2)C1)c1cn(C2CC2)nn1 [compound 999]"
observable = "IC50"
bound_operator = "="
numeric_value = 1100

[[record]]
molecule = "O=C(NC1CN(CCO)C1)c1cn(C2CC2)nn1"
observable = "IC50"
bound_operator = "="
numeric_value = 4530

[[record]]
molecule = "CC(c1cccc(OCC(C)(C)O)c1Cl)N1CC(NC(=O)c2cn(C3CC3)nn2)C1 (stereo not drawn)"
observable = "IC50"
bound_operator = "="
numeric_value = 2600

[[record]]
molecule = "O=C(NC1CN(Cc2cnn(CC3CCCCC3)c2)C1)c1cn(C2CC2)nn1"
observable = "IC50"
bound_operator = "="
numeric_value = 360

[[record]]
molecule = "CCC(c1ccccn1)N1CC(NC(=O)c2cn(C3CC3)nn2)C1 (stereo not drawn)"
observable = "IC50"
bound_operator = "="
numeric_value = 2470

[[record]]
molecule = "O=C(NC1CN(Cc2cnn(Cc3ccccc3)c2)C1)c1nnc(C2CC2)o1"
observable = "IC50"
bound_operator = "="
numeric_value = 65

[[record]]
molecule = "CSc1ccc(Cn2cc(CN3CC(NC(=O)c4cn(C5CC5)nn4)C3)cn2)cc1"
observable = "IC50"
bound_operator = "="
numeric_value = 28

[[record]]
molecule = "CC(c1cccc(OCCO)c1)N1CC(NC(=O)c2cn(C3CC3)nn2)C1 (stereo not drawn)"
observable = "IC50"
bound_operator = "="
numeric_value = 640

[[record]]
molecule = "CC(C)N1CC(NC(=O)c2cn(C3CC3(F)F)nn2)C1 (stereo not drawn)"
observable = "IC50"
bound_operator = "="
numeric_value = 4190

[[record]]
molecule = "COc1cc(C(C)N2CC(NC(=O)c3cn(C4CC4)nn3)C2)ccc1OCc1ccccc1 (stereo not drawn)"
observable = "IC50"
bound_operator = "="
numeric_value = 3600

[[record]]
molecule = "O=C(NC1CN(Cc2ccc(OCc3ccncc3)cc2)C1)c1cn(C2CC2)nn1"
observable = "IC50"
bound_operator = "="
numeric_value = 1030

[[record]]
molecule = "COc1cccc(C(N2CC(NC(=O)c3cn(C4CC4)nn3)C2)C(F)(F)F)c1 (stereo not drawn)"
observable = "IC50"
bound_operator = ">"
numeric_value = 50000

[[record]]
molecule = "COc1nn(C)cc1CN1CC(NC(=O)c2cn(C3CC3)nn2)C1"
observable = "IC50"
bound_operator = "="
numeric_value = 5620

